src = patent US20260200897A1

# target.or.system: CDK1/Cyclin B1 (Homo sapiens)
# Sequence (P06493 whole entry): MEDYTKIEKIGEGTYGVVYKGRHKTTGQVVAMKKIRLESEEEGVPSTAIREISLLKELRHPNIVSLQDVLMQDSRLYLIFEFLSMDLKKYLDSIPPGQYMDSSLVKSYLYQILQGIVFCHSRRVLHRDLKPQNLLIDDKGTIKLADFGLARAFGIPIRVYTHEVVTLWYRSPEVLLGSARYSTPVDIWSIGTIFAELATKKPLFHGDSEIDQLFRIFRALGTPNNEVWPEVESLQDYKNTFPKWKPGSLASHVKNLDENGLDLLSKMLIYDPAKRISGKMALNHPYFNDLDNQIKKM
# Sequence (P14635 whole entry partner): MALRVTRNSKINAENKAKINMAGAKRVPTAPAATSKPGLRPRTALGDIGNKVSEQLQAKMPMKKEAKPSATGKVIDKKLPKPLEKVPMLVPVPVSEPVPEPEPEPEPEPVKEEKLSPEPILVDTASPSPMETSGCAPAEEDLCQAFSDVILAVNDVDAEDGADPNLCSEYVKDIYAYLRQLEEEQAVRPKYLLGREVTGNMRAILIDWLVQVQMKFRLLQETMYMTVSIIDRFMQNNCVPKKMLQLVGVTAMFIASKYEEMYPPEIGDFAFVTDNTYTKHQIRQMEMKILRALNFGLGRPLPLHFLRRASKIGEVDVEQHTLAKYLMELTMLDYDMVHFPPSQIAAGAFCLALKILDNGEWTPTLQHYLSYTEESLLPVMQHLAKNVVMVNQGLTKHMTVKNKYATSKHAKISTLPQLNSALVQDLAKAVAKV
# method.notes: CDK1/Cyclin B1 TR-FRET biochemical assay, 0.015 mM ATP
# condition.set: 0.15 μM Rb (Ser780)-biotin substrate, 120 min reaction, Table 1
Recorded IC50, one value per entry.
State the answer as a number, implicitly in nM.

Just so you know, measured IC50 for C=C(C)c1cnn([C@H]2CC[C@@H](c3cc(Nc4ccc5c(c4F)CNS5(=O)=O)n[nH]3)C2)c(=O)c1 (relative stereo) [Example 32] came out at 3570

Input CC1(C)CC(=O)N([C@H]2CC[C@@H](c3cc(Nc4ccc5c(c4F)CNS5(=O)=O)n[nH]3)C2)C1=O (relative stereo) [Example 87] . Output IC50: 3250

The recorded IC50 for entry Cc1n[nH]cc1O[C@@H]1CC[C@H](c2cc(Nc3ccc4c(c3F)CNS4(=O)=O)n[nH]2)C1 (relative stereo) [Example 79] equals 486

So for CC(C)(C)c1cc(O[C@@H]2CC[C@H](c3cc(Nc4ccc5c(c4F)CNS5(=O)=O)n[nH]3)C2)[nH]n1 (relative stereo) [Example 71] , the logged IC50 turned out to be 7810

Entry under test: CC1(C)NC(=O)N(C2CCC(c3cc(Nc4ccc5c(c4F)CNS5(=O)=O)n[nH]3)C2)C1=O (single isomer, unassigned) [Example 84a] . Its IC50 was 237

Kindly note the recorded IC50 for CCc1ccnnc1O[C@@H]1CC[C@H](c2cc(Nc3ccc4c(c3F)CNS4(=O)=O)n[nH]2)C1 (relative stereo) [Example 25] , which is 11

// Cc1ncccc1O[C@@H]1CC[C@H](c2cc(Nc3ccc4c(c3F)CNS4(=O)=O)n[nH]2)C1 (relative stereo) [Example 40] : IC50 value = 552

Recorded IC50 (compound O=S1(=O)NCc2c1ccc(Nc1cc([C@H]3CC[C@@H](Oc4cccnc4)C3)[nH]n1)c2F (relative stereo) [Example 39] ): 2330
